- Procedure Details: In vivo pharmacokinetics in mice
- Measurement Parameters: mouse, in vivo, po; ICR mice, IG, 10 mg/kg
Readout Name: half-life (h)

- Cc1c(F)cc2[nH]ncc2c1-c1nc2c3c(nc(OC[C@@]45CCCN4C[C@H](F)C5)nc3c1F)N(C(C)c1cccnc1N)[C@@H](C)CO2 (single isomer, unassigned) [Example 85]: 2.77
- C#Cc1c(F)ccc2cccc(-c3nc4c5c(nc(OC[C@@H]6CCCN6C)nc5c3F)N(C(C)c3cccnc3N)[C@@H](C)CO4)c12 (single isomer, unassigned) [Example 87]: 3.66

----------
- Procedure Details: In vivo pharmacokinetics in mice
- Measurement Parameters: mouse, plasma, po; ICR mice, IG, 10 mg/kg
Readout Name: Cmax (ng/mL)

• CC(c1cccnc1N)N1c2nc(OC[C@@H]3CCCN3C)nc3c(F)c(-c4cc(N)cc(Cl)c4C(F)(F)F)nc(c23)OC[C@@H]1C (single isomer, unassigned) [Example 162] = 38.4

----------
# key: entry, value: AUC(0-inf)
- Procedure Details: In vivo pharmacokinetics in mice
- Measurement Parameters: mouse, in vivo, po; ICR mice, IG, 10 mg/kg
Readout Name: AUC(0-inf) (ng·h/mL)

- Cc1c(F)cc2[nH]ncc2c1-c1nc2c3c(nc(OC[C@@]45CCCN4C[C@H](F)C5)nc3c1F)N(C(C)c1cccnc1N)[C@@H](C)CO2 (single isomer, unassigned): 214
- C#Cc1c(F)ccc2cccc(-c3nc4c5c(nc(OC[C@@H]6CCCN6C)nc5c3F)N(C(C)c3cccnc3N)[C@@H](C)CO4)c12 (single isomer, unassigned): 309

----------
- Procedure Details: In vivo pharmacokinetics in mice
- Measurement Parameters: mouse, in vivo, po; ICR mice, IG, 10 mg/kg
Readout Name: Tmax (min)

- Cc1c(F)cc2[nH]ncc2c1-c1nc2c3c(nc(OC[C@@]45CCCN4C[C@H](F)C5)nc3c1F)N(C(C)c1cccnc1N)[C@@H](C)CO2 (single isomer, unassigned) [Example 85]: 15
- C#Cc1c(F)ccc2cccc(-c3nc4c5c(nc(OC[C@@H]6CCCN6C)nc5c3F)N(C(C)c3cccnc3N)[C@@H](C)CO4)c12 (single isomer, unassigned) [Example 87]: 15

----------
# key: entry, value: pIC50
- Test system: Capan-1 cells
- Procedure Details: Inhibitory activity for Capan-1 cell proliferation (CCK-8)
- Type: cell-based
- Measurement Parameters: Homo sapiens, CAPAN-1, 120 h, 5 days incubation
pIC50: −log10 of the molar value.
Readout Name: pIC50

- Cc1cccc(-c2nc3c4c(nc(OC[C@@]56CCCN5C[C@H](F)C6)nc4c2F)N(C(C)c2cccnc2N)[C@@H](C)CO3)c1N(C)C (single isomer, unassigned) [Example 128]: > 7.00
- C#Cc1c(F)ccc2cc(O)cc(-c3nc4c5c(nc(OC[C@@]67CCCN6C[C@H](F)C7)nc5c3F)N(CC(F)(F)F)CCO4)c12 [Example 8]: 6.30 to 7.00
- CC(c1cccnc1N)N1c2nc(OC[C@@]34CCCN3C[C@H](F)C4)nc3c(F)c(-c4ccccc4C(F)(F)F)nc(c23)OC[C@@H]1C (single isomer, unassigned) [Example 61]: > 7.00

----------
- Tested on: Capan-1 cells
- Procedure Details: Inhibitory activity for Capan-1 cell proliferation (CCK-8)
- Format: cell-based
- Measurement Parameters: Homo sapiens, CAPAN-1, 120 h, 5 days incubation
pIC50: −log10 of the molar value.
# key: entry, value: pIC50
Readout Name: pIC50

- C#Cc1c(F)ccc2cc(O)cc(-c3nc4c5c(nc(OCCN6CCN(C)CC6)nc5c3F)N(C(C)c3cccnc3N)[C@@H](C)CO4)c12 (single isomer, unassigned): > 7.00
- C#Cc1c(F)ccc2cc(O)cc(-c3nc4c5c(nc(O[C@@H](C)[C@@H]6CCCN6C)nc5c3F)N(C(C)c3cccnc3N)[C@@H](C)CO4)c12 (single isomer, unassigned): > 7.00
- C#Cc1c(F)ccc2cc(O)cc(-c3nc4c5c(nc(OCCN6CCCCC6)nc5c3F)N(C(C)c3cccnc3N)[C@@H](C)CO4)c12 (single isomer, unassigned): > 7.00

Ref: patent EP4570805A1
